In this section, each of the compounds is paired with its reported IC50.
# target.desc: 4,4'-diapophytoene desaturase (4,4'-diaponeurosporene-forming) (Staphylococcus aureus (strain Newman), UniProt O07855)
# Sequence (O07855 whole entry): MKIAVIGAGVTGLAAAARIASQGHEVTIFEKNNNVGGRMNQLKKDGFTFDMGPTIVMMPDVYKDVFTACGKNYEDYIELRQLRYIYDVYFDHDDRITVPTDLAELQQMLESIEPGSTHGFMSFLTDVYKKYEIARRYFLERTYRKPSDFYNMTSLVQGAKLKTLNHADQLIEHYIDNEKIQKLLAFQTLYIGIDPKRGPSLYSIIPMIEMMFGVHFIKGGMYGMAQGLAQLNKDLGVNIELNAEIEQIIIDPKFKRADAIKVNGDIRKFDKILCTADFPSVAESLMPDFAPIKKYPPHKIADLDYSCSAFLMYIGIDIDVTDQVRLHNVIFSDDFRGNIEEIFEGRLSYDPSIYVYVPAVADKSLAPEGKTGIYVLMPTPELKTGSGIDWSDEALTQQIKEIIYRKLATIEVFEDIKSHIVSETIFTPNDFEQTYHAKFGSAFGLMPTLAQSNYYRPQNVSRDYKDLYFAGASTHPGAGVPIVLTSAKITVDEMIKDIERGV
# assay.notes: Inhibition of CrtN in Staphylococcus aureus Newman assessed as reduction in staphyloxanthin levels after 48 hrs by spectrophotometric method-based pigment inhibition assay
# Parameters: species or system Staphylococcus aureus subsp. aureus str. Newman
Numeric answer only, unit nM assumed.

These solved cases illustrate the format of a correct answer.
CN(C/C=C/c1ccc(C(F)(F)F)cc1F)Cc1ccc2c(c1)OCCO2 8.8
CN(C/C=C/C=C/c1ccc(C(F)(F)F)cc1)Cc1ccc2c(c1)OCCO2.Cl 2.2
CN(C/C=C/C1CCCC1)Cc1ccc2c(c1)OCCO2 321
Cc1ccc(/C=C/CN(C)Cc2ccc3c(c2)OCCO3)cc1.Cl 3.2
COc1ccc(/C=C/CN(C)Cc2ccc3c(c2)OCCO3)cc1F 57.9

Q) Give reported IC50 value for `CN(C/C=C/c1ccco1)Cc1ccc2c(c1)OCCO2`
A) 228

Q) Give reported IC50 value for `CN(C/C=C/c1ccc(Br)cc1)Cc1ccc2c(c1)OCCO2`
A) 8.2

Q) Give reported IC50 value for `CN(C/C=C/c1ccc(F)cc1)Cc1ccc2c(c1)OCCO2`
A) 20.1

Q) Give reported IC50 value for `CN(C/C=C/c1ccc(-c2ccccc2)cc1)Cc1ccc2c(c1)OCCO2`
A) 4.1

Q) Give reported IC50 value for `COc1ccc(/C=C/CN(C)Cc2ccc3c(c2)OCCO3)cc1`
A) 48.6

Q) Give reported IC50 value for `CN(C/C=C/c1ccc([N+](=O)[O-])cc1)Cc1ccc2c(c1)OCCO2`
A) 18.9

Q) Give reported IC50 value for `CN(C/C=C/c1ccc(Cl)cc1)Cc1ccc2c(c1)OCCO2`
A) 6.7

###

# target.desc: Voltage-gated inwardly rectifying potassium channel KCNH2 (Homo sapiens)
# Sequence (Q12809 whole entry): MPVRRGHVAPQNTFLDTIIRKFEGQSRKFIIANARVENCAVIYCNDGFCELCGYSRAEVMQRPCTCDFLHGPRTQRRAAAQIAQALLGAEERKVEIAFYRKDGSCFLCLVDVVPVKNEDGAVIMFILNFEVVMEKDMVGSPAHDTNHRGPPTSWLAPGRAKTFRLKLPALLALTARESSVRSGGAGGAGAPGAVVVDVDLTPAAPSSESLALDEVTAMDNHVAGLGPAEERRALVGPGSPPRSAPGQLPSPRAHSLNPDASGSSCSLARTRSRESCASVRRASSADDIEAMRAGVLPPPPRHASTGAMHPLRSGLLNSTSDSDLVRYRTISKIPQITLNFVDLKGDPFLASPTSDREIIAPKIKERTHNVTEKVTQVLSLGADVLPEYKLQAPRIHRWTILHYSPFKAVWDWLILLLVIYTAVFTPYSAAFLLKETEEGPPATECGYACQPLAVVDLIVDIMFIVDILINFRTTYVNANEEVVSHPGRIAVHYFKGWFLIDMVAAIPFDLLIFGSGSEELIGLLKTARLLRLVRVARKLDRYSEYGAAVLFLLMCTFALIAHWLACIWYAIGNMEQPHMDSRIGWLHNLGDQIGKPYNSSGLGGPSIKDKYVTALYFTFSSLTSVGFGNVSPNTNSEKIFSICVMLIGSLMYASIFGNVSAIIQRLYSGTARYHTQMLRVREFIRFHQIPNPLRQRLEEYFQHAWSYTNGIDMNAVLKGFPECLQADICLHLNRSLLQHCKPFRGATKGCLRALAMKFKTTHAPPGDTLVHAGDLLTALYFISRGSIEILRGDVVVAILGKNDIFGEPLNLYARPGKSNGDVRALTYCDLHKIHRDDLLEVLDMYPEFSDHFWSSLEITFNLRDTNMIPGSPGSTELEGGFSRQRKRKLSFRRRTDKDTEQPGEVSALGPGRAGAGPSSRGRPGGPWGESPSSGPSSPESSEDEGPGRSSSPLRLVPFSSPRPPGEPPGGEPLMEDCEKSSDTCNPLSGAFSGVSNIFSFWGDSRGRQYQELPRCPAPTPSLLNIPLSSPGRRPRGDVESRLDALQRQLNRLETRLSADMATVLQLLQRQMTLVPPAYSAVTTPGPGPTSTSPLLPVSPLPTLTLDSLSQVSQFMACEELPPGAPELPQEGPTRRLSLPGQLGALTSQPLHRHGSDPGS
# assay.notes: Inhibition of recombinant human ERG expressed in CHO cells at -80 mV holding potential measured after 3 minutes by automated whole cell patch clamp Qpatch method
readout.label: IC50

Q) Please report IC50 with Voltage-gated inwardly rectifying potassium channel KCNH2 (Homo sapiens) for item `Cc1ccc(/C=C/CN(C)Cc2ccc3c(c2)OCCO3)cc1.Cl` .
A) 4.6 µM

Q) Please report IC50 with Voltage-gated inwardly rectifying potassium channel KCNH2 (Homo sapiens) for item `CN(C/C=C/C=C/C=C/c1ccc(C(F)(F)F)cc1)Cc1ccc2c(c1)OCCO2.Cl` .
A) 8.7 µM

Q) Please report IC50 with Voltage-gated inwardly rectifying potassium channel KCNH2 (Homo sapiens) for item `CN(C/C=C/C=C/c1ccc(C(F)(F)F)cc1)Cc1ccc2c(c1)OCCO2.Cl` .
A) 12.1 µM

###

# target.desc: 4,4'-diapophytoene desaturase (4,4'-diaponeurosporene-forming) (Staphylococcus aureus (strain MW2))
# assay.notes: Inhibition of CrtN in methicillin-resistant Staphylococcus aureus USA400 MW2 assessed as reduction in staphyloxanthin levels after 48 hrs by spectrophotometric method-based pigment inhibition assay
# Design: species or system Staphylococcus aureus subsp. aureus MW2
In this section, each of the compounds is paired with its reported pIC50.
pIC50 (log units): -log10 of the concentration in mol/L.

Q) Give reported pIC50 value for `COc1ccc(/C=C/CN(C)Cc2ccc3c(c2)CCCCC3)cc1.Cl`
A) 8.15

Q) Give reported pIC50 value for `CN(C/C=C/c1ccc(C(F)(F)F)cc1)Cc1ccc2c(c1)OCCO2.Cl`
A) 8.19

Q) Give reported pIC50 value for `CN(C/C=C/C=C/c1ccc(C(F)(F)F)cc1)Cc1ccc2c(c1)OCCO2.Cl`
A) 8.19

Q) Give reported pIC50 value for `CN(C/C=C/C=C/C=C/c1ccc(C(F)(F)F)cc1)Cc1ccc2c(c1)OCCO2.Cl`
A) 8.28
